Recorded pIC50 by entry
Target: m-calpain (Homo sapiens, UniProt P17655)
Sequence (P17655 1-700): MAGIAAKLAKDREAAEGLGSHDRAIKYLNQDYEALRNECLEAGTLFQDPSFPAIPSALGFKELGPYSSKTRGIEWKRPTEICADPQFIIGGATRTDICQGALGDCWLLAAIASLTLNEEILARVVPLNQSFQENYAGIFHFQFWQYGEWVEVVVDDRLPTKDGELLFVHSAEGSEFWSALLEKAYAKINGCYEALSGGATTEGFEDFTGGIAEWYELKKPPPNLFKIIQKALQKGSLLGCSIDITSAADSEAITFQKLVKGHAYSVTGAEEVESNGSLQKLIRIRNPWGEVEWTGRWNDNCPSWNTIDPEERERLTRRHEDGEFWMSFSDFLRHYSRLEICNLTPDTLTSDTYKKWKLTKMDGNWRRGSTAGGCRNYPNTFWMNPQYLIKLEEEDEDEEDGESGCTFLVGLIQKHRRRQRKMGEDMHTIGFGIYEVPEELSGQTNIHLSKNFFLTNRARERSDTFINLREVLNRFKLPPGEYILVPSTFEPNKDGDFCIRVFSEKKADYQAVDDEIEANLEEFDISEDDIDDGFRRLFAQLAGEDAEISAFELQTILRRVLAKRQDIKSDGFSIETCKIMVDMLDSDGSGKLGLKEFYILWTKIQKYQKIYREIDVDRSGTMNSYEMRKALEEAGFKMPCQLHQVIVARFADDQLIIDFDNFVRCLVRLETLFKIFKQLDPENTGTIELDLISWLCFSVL
Sequence (P04632 1-268 partner): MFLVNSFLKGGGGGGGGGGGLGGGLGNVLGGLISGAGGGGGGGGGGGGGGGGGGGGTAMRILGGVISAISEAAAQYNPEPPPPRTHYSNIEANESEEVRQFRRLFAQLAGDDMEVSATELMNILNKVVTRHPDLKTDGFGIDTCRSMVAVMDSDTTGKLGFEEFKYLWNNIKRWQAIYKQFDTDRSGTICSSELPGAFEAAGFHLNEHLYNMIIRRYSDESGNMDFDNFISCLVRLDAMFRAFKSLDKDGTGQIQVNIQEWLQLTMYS
Assay: m-calpain inhibition, fluorescence-based assay with BODIPY-casein substrate
Format: biochemical
pIC50: −log10 of the molar value.
Observation type: pIC50

INSERT INTO measurements (record_smiles, recorded_measurement) VALUES
  ('CC(C)C[C@@H](CO)NC(=O)[C@@H](NC(=O)c1ccc(C=O)s1)C(C)C', 4.52),
  ('CC(C)C[C@@H](CO)NC(=O)[C@@H](NC(=O)c1ccc(C=O)[nH]1)C(C)C', 6.01);
